B1: TPR t1 (parent)
chain: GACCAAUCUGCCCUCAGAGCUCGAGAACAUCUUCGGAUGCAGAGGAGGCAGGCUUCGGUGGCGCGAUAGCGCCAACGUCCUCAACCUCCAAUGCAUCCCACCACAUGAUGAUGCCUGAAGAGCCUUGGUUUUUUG

Variants of: B1
Experimental Details: polymerase ribozyme fitness, log enrichment relative to wild type (log ratio); higher = more active; in vitro selection for triplet polymerase activity
Observation Type: polymerase ribozyme fitness (log ratio)
Reply briefly: the number, and no unit.

Prompt line: Param item = G57U C72U C102A ; retrieve measured polymerase ribozyme fitness (log ratio).
Response line: -2.25

Prompt line: Queued: A16U A50C
Response line: -2.04

Prompt line: Queued: C70U G93C
Response line: -1.12

Prompt line: Queued: C12U C20U A91U U116G
Response line: -4.44

Prompt line: Queued: C102U U125A U129C
Response line: -3.71

Prompt line: Queued: G71C A84U
Response line: -2.77

Prompt line: Queued: A50C C89U
Response line: -1.06
